Just for reference, ChEMBL document CHEMBL2218924 is where these values come from.

- measured-on: Protein kinase C beta type (Homo sapiens) (UniProt P05771)
- Sequence (P05771 2-671 limits assumed): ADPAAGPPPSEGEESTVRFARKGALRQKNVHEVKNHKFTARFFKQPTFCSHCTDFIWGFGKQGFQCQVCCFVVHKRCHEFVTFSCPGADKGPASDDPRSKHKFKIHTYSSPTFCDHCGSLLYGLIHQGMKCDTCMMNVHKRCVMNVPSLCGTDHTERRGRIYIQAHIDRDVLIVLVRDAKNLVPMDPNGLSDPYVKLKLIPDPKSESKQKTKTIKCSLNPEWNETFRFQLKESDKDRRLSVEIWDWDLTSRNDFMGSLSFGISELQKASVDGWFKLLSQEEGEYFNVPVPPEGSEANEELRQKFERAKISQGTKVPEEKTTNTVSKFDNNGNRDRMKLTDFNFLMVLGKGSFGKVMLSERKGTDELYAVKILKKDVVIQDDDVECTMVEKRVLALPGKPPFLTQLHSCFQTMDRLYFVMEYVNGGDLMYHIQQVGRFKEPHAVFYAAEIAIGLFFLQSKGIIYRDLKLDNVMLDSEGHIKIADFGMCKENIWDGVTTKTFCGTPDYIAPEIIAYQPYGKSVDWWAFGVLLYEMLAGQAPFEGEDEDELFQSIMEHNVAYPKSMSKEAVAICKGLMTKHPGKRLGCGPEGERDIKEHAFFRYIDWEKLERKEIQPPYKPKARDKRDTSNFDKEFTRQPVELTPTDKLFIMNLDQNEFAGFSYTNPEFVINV
- assay-setup: at 1 µM
Assignment: determine reported residual activity for the given compounds.
State just the number; it will be interpreted in %.

Prompt: Report the value of residual activity obtained on Protein kinase C beta type (Homo sapiens) (UniProt P05771) for CCN(CC)CCNC(=O)c1c(C)[nH]c(/C=C2\C(=O)Nc3ccc(Cl)cc32)c1C .
Completion: 125

Prompt: Report the value of residual activity obtained on Protein kinase C beta type (Homo sapiens) (UniProt P05771) for CCCCc1c(-c2ccc(OC)cc2)[nH]c2nccnc12 .
Completion: 101

Prompt: Report the value of residual activity obtained on Protein kinase C beta type (Homo sapiens) (UniProt P05771) for CC(C)c1nn(-c2c(Cl)cccc2Cl)c2nc(Cc3ccc(OCCO)cc3)[nH]c(=O)c12 .
Completion: 125

Prompt: Report the value of residual activity obtained on Protein kinase C beta type (Homo sapiens) (UniProt P05771) for CC(C)(C)n1nc(Cc2cccc3ccccc23)c2c(N)ncnc21 .
Completion: 119

Prompt: Report the value of residual activity obtained on Protein kinase C beta type (Homo sapiens) (UniProt P05771) for COc1cc2ncnc(Nc3cccc(Cl)c3)c2cc1OC .
Completion: 110

Prompt: Report the value of residual activity obtained on Protein kinase C beta type (Homo sapiens) (UniProt P05771) for Nc1nccc(-c2c(-c3ccc(F)cc3)ncn2C2CCNCC2)n1 .
Completion: 115

Prompt: Report the value of residual activity obtained on Protein kinase C beta type (Homo sapiens) (UniProt P05771) for O=C(c1ccccc1)c1ccc(N2CCOCC2)cc1O .
Completion: 120

Prompt: Report the value of residual activity obtained on Protein kinase C beta type (Homo sapiens) (UniProt P05771) for COc1cc2c(cc1OC)-c1n[nH]c(Nc3cccc(F)c3)c1C2 .
Completion: 104

Prompt: Report the value of residual activity obtained on Protein kinase C beta type (Homo sapiens) (UniProt P05771) for COc1ccc2c(c1)c(C1=C(c3c[nH]c4ccccc34)C(=O)NC1=O)cn2CCCN(C)C .
Completion: 4

Prompt: Report the value of residual activity obtained on Protein kinase C beta type (Homo sapiens) (UniProt P05771) for Cn1sc(=O)n(Cc2ccccc2)c1=O .
Completion: 94

Prompt: Report the value of residual activity obtained on Protein kinase C beta type (Homo sapiens) (UniProt P05771) for NC(=O)Nc1sc(-c2ccc(F)cc2)cc1C(N)=O .
Completion: 103

Prompt: Report the value of residual activity obtained on Protein kinase C beta type (Homo sapiens) (UniProt P05771) for O=C(O)/C=C/c1cc(Br)c(Br)c(Br)c1Br .
Completion: 124

Prompt: Report the value of residual activity obtained on Protein kinase C beta type (Homo sapiens) (UniProt P05771) for NC(=O)c1ccc(-c2nc(-c3ccc4c(c3)OCCO4)c(-c3ccccn3)[nH]2)cc1 .
Completion: 124

Prompt: Report the value of residual activity obtained on Protein kinase C beta type (Homo sapiens) (UniProt P05771) for Nc1ncnc2[nH]nc(Nc3ccc(F)cc3)c12 .
Completion: 122

Prompt: Report the value of residual activity obtained on Protein kinase C beta type (Homo sapiens) (UniProt P05771) for NCCNc1ncc(C(N)=O)c(Nc2cccc(C(F)(F)F)c2)n1 .
Completion: 106

Prompt: Report the value of residual activity obtained on Protein kinase C beta type (Homo sapiens) (UniProt P05771) for Cn1c2ccccc2c2c3c(c4c5ccccc5n(CCC#N)c4c21)CNC3=O .
Completion: 6

Prompt: Report the value of residual activity obtained on Protein kinase C beta type (Homo sapiens) (UniProt P05771) for Nc1ncnc2c1c(-c1ccc(Oc3ccccc3)cc1)cn2C1CCCC1 .
Completion: 103

Prompt: Report the value of residual activity obtained on Protein kinase C beta type (Homo sapiens) (UniProt P05771) for O=C1NC(=O)C(c2cn(CCCn3ccnc3)c3ccccc23)=C1Nc1ccccc1 .
Completion: 19
